Entries and their Post-emergence action against ABUTH in % values follow.
# Test system: ABUTH
# procedure details: Post-emergence herbicidal action against ABUTH
# Format: in vivo, Abutilon theophrasti
# conditions used: dosage 20 g/ha, visual assessment about 3 weeks after treatment vs untreated controls

# compound, Post-emergence action against ABUTH in % (%)
rows = [
    ("CCn1nnnc1NC(=O)c1ccc(C(F)F)c(C(=O)NCC(F)F)c1Br [Example 2-230]", 80),
    ("CCNC(=O)c1c(C(F)F)ccc(C(=O)Nc2nnnn2CC)c1C [Example 2-45]", 80),
    ("CCCn1nnnc1NC(=O)c1ccc(C(F)(F)F)c(C(=O)NC2CC2)c1C [Example 3-27]", 100),
    ("CCn1nnnc1NC(=O)c1ccc(C(F)F)c(C(=O)NC2CC2)c1C [Example 2-46]", 80),
    ("Cc1nnc(NC(=O)c2ccc(C(F)F)c(C(=O)NC3CC3)c2Cl)o1 [Example 6-124]", 80),
    ("CC(NC(=O)c1c(C(F)F)ccc(C(=O)Nc2nnnn2C)c1Br)C1CC1 (stereo not drawn) [Example 1-340]", 80),
    ("CCNC(=O)c1c(C(F)F)ccc(C(=O)Nc2nnnn2CC)c1SC [Example 2-88]", 90),
    ("CCn1nnnc1NC(=O)c1ccc(C(F)(F)F)c(C(=O)NCC2CC2)c1C [Example 2-28]", 80),
    ("CCn1nnnc1NC(=O)c1ccc(C(F)(F)F)c(C(=O)NCC(F)F)c1SC [Example 2-86]", 100),
]

---

# Tested on: POLCO
# procedure details: Pre-emergence herbicidal action against POLCO
# Format: in vivo, Polygonum convolvulus
# conditions used: dosage 80 g/ha

# molecule, Pre-emergence action against POLCO in %
data = [
    ("CC(NC(=O)c1c(C(F)(F)F)ccc(C(=O)Nc2nnnn2C)c1C1CC1)C1CC1 (centres unmarked) [Example 1-292]", "90%"),
    ("CCNC(=O)c1c(C(F)(F)F)ccc(C(=O)Nc2nnco2)c1Cl [Example 5-117]", "80%"),
    ("CCc1c(C(=O)Nc2nnnn2C)ccc(C(F)(F)F)c1C(=O)NCC1CC1 [Example 1-274]", "90%"),
    ("CCn1nnnc1NC(=O)c1ccc(C(F)(F)F)c(C(=O)NCC2CC2)c1C1CC1 [Example 2-289]", "80%"),
    ("CCc1c(C(=O)Nc2nnnn2CC)ccc(C(F)(F)F)c1C(=O)NC [Example 2-271]", "80%"),
    ("CCn1nnnc1NC(=O)c1ccc(C(F)(F)F)c(C(=O)NCC2CC2)c1Cl [Example 2-132]", "80%"),
    ("CCc1c(C(=O)Nc2nnnn2CC)ccc(C(F)(F)F)c1C(=O)NCC(F)F [Example 2-276]", "90%"),
    ("COCCNC(=O)c1c(C(F)(F)F)ccc(C(=O)Nc2nnnn2C)c1Cl [Example 1-138]", "90%"),
]

---

# Test system: PHBPU
# procedure details: Post-emergence herbicidal action against PHBPU
# Format: in vivo, Pharbitis purpurea
# conditions used: dosage 20 g/ha
Entries and their Post-emergence action against PHBPU in % values follow.
recorded metric: Post-emergence action against PHBPU in % (%)

# compound, recorded metric, meas value
data = [
    ("CCCn1nnnc1NC(=O)c1ccc(C(F)(F)F)c(C(=O)NC2CC2)c1CC", "Post-emergence action against PHBPU in %", 80),
    ("CSc1c(C(=O)Nc2nnnn2C)ccc(C(F)F)c1C(=O)NC(C)C1CC1 (centres unmarked)", "Post-emergence action against PHBPU in %", 90),
    ("CCc1c(C(=O)Nc2nnnn2C)ccc(C(F)(F)F)c1C(=O)NCC(F)F", "Post-emergence action against PHBPU in %", 90),
    ("CCNC(=O)c1c(C(F)(F)F)ccc(C(=O)Nc2nnc(C)o2)c1Br", "Post-emergence action against PHBPU in %", 80),
    ("COCCNC(=O)c1c(C(F)(F)F)ccc(C(=O)Nc2nnnn2C)c1Cl", "Post-emergence action against PHBPU in %", 90),
    ("Cc1nnc(NC(=O)c2ccc(C(F)(F)F)c(C(=O)NC3CCC3)c2C)o1", "Post-emergence action against PHBPU in %", 90),
    ("CCn1nnnc1NC(=O)c1ccc(C(F)(F)F)c(C(=O)NCCOC)c1Cl", "Post-emergence action against PHBPU in %", 80),
    ("CCn1nnnc1NC(=O)c1ccc(C(F)F)c(C(=O)Nc2ccccc2)c1Cl", "Post-emergence action against PHBPU in %", 80),
    ("CCn1nnnc1NC(=O)c1ccc(C(F)F)c(C(=O)NC2CC2)c1C1CC1", "Post-emergence action against PHBPU in %", 80),
    ("CSc1c(C(=O)Nc2nnnn2C)ccc(C(F)(F)F)c1C(=O)NC(C)C1CC1 (centres unmarked)", "Post-emergence action against PHBPU in %", 90),
    ("Cn1nnnc1NC(=O)c1ccc(C(F)(F)F)c(C(=O)NCC2CC2)c1C1CC1", "Post-emergence action against PHBPU in %", 90),
    ("Cc1nnc(NC(=O)c2ccc(C(F)(F)F)c(C(=O)NCC3CC3)c2C2CC2)o1", "Post-emergence action against PHBPU in %", 80),
    ("CCn1nnnc1NC(=O)c1ccc(C(F)F)c(C(=O)NCCOC)c1C", "Post-emergence action against PHBPU in %", 80),
    ("CCn1nnnc1NC(=O)c1ccc(C(F)(F)F)c(C(=O)NCC(F)(F)F)c1Cl", "Post-emergence action against PHBPU in %", 80),
]
